Provenance of the data: ChEMBL document CHEMBL1133763

So I've got a bunch of compounds here, and I need their Toxicity values.
# Test system: Mus musculus
# protocol-details: The Toxicity of compound was measured by DTH Assay on mice after giving compound daily by ip route for 6 days at different doses
# Type: organism-based
# test-parameters: in vivo, 144 h
Answers are plain numbers, in mg/kg.

>>> observed_result("CCCCCCCCCCCC1=N/C(=C\\c2[nH]c(-c3ccc[nH]3)cc2OC)C=C1")
1
>>> observed_result("CCCCCCCCCCCC1=N/C(=C\\c2[nH]c(-c3ccc[nH]3)cc2OCCCC)C=C1")
3
>>> observed_result("CCCCCCCCCCCC1=N/C(=C\\c2[nH]c(-c3ccc[nH]3)cc2OCc2ccccc2)C=C1")
5
>>> observed_result("CCCCCCCCCCCC1=N/C(=C\\c2[nH]c(-c3ccc[nH]3)cc2OCC)C=C1")
2
>>> observed_result("CCCCCCCCCCCC1=N/C(=C\\c2[nH]c(-c3ccc[nH]3)cc2OCCC)C=C1")
2

// next entry
Prompt: Which Toxicity is listed for `CCCCCCCCCCCCCC1=N/C(=C\c2[nH]c(-c3ccc[nH]3)cc2OC)C=C1` ?
Response: 1.5
